Recorded glass transition temperature for the following compounds

| compound | glass transition temperature [°C] |
| --- | --- |
| *CC(*)(C)C(=O)OCCN(C)C (repeat unit) | 28.62 |
| *c1cc(C(c2ccc(OCCN(c3ccccc3)c3ccc(/C=C/C4=CC(=C(C#N)C#N)CC(C)(C)C4)cc3)c(N3C(=O)c4ccc(Oc5ccc6c(c5)C(=O)N(*)C6=O)cc4C3=O)c2)(C(F)(F)F)C(F)(F)F)ccc1OCCN(c1ccccc1)c1ccc(/C=C/C2=CC(=C(C#N)C#N)CC(C)(C)C2)cc1 (repeat unit) | 220.00 |
| *c1ccc(Oc2ccc(C(c3ccc(Oc4ccc(N5C(=O)c6ccc(Oc7c(C)cc(C(C)(C)c8cc(C)c(Oc9ccc%10c(c9)C(=O)N(*)C%10=O)c(C)c8)cc7C)cc6C5=O)cc4)cc3)(C(F)(F)F)C(F)(F)F)cc2)cc1 (repeat unit) | 244.00 |
| *c1ccc(Oc2cc3ccccc3cc2Oc2ccc(N3C(=O)c4ccc(-c5ccc6c(c5)C(=O)N(*)C6=O)cc4C3=O)cc2)cc1 (repeat unit) | 253.50 |
| *Oc1ccc(C(c2ccc(OC(*)=S)cc2)C(C)C)cc1 (repeat unit) | 135.00 |
| *CC(O)COc1ccc(C(C)(C)c2ccc(OCC(O)COc3ccc(C(=O)Nc4ccc(O*)cc4)cc3)cc2)cc1 (repeat unit) | 127.00 |

====

Known glass transition temperature of a selection of compounds

| compound | measurement-units | glass transition temperature |
| --- | --- | --- |
| *c1c(C)cc(C(c2cccc(C(F)(F)F)c2)c2cc(C)c(N3C(=O)c4ccc(Oc5ccc6c(c5)C(=O)N(*)C6=O)cc4C3=O)c(C)c2)cc1C (repeat unit) | °C | 264.10 |
| *c1ccc(Oc2ccc(Oc3ccc(N4C(=O)c5ccc(Oc6ccc(-c7ccc(Oc8ccc9c(c8)C(=O)N(*)C9=O)cc7)cc6)cc5C4=O)cc3)cc2)cc1 (repeat unit) | °C | 222.00 |
| *O[Si](C)(CCC(F)(F)F)CCC(F)(F)CC[Si](*)(C)CCC(F)(F)F (repeat unit) | °C | -38.00 |

====

Items are presented alongside their recorded glass transition temperature.

| molecule | glass transition temperature / °C |
| --- | --- |
| *Oc1ccc(-c2ccc(Oc3ccc(C(=O)c4ccc(*)cc4)cc3)cc2)cc1 (repeat unit) | 167.00 |
| *c1ccc(Sc2ccc(-c3nc4cc(-c5ccc6nc(-c7ccccc7)c(*)nc6c5)ccc4nc3-c3ccccc3)cc2)cc1 (repeat unit) | 288.00 |
| *CCN(CCOC(=O)CCC#CC#CCCC(=O)O*)c1ccc(/N=N/c2c(C)cc(/N=N/c3ccc(C#N)cc3)cc2C)cc1 (repeat unit) | 63.00 |
| *CC(*)CNc1ccc([N+](=O)[O-])cc1C (repeat unit) | 151.00 |
| *Oc1ccc(OC(=O)c2ccc(OCCCCCCCCCCOc3ccc(C(*)=O)cc3)cc2)cc1S(=O)(=O)c1ccccc1 (repeat unit) | 88.00 |
| *CC(*)OC(=O)C1CCCC1 (repeat unit) | 36.00 |
| *NNC(=O)c1ccccc1C(=O)NCCCCCCNC(=O)c1ccccc1C(*)=O (repeat unit) | 224.50 |
| *c1nnc(-c2ccc(Oc3ccc(/C=C/c4ccc(Oc5ccc(*)c6ccccc56)cc4)c4ccccc34)c3ccccc23)o1 (repeat unit) | 241.00 |
| *Oc1ccc(/C=C2\CCC/C(=C\c3ccc(OC(=O)c4cccc(C(*)=O)c4)c(OC)c3)C2=O)cc1OC (repeat unit) | 57.86 |
| *Cc1cccc(C[n+]2ccc(-c3cc[n+](*)cc3)cc2)c1 (repeat unit) | 128.00 |
| *Oc1ccc(Oc2ccc(OC(=O)c3cccc(C(*)=O)c3)cc2)cc1 (repeat unit) | 164.50 |
| *CCCCCCOC(=O)C(CCCCCCCCCCP(=O)(OCC)OCC)C(=O)OCCCCCCOc1ccc(-n2on2-c2ccc(O*)cc2)cc1 (repeat unit) | 9.00 |
| *CC(O)COc1ccc(C(C)(C)c2ccc(OCC(O)COc3c(C)cc(S(=O)(=O)c4cc(C)c(O*)c(C)c4)cc3C)cc2)cc1 (repeat unit) | 137.50 |
| *Nc1ccc(C(C)(C)c2ccc(C(C)(C)c3ccc(Nc4ccc(C(O)(c5ccccc5)c5ccc(C(O)(c6ccccc6)c6ccc(*)cc6)cc5)cc4)cc3)cc2)cc1 (repeat unit) | 177.00 |
| *CCOC(=O)c1cc(C(=O)O*)cc(C(C)(C)C)c1 (repeat unit) | 94.00 |
| *CCCCCCCCCCCCNC(=O)CCCCCCCCCCCCCCC(=O)N* (repeat unit) | 46.00 |

====

Is glass transition temperature at least 300 °C? Then YES. If not, NO.

| molecule | classification |
| --- | --- |
| *OS(=O)(=O)c1cccc(C(=O)c2cccc(S(=O)(=O)Oc3ccc(C(C)(C)c4ccc(*)cc4)cc3)c2)c1 (repeat unit) | NO |
| */C=C/C1CC(*)C(C(=O)OC(C)(C)C)C1C(=O)OC(C)(C)C (repeat unit) | NO |
| *c1ccc(C(C)(C)c2ccc(C(C)(C)c3ccc(N4C(=O)c5ccc(Oc6ccc7cc(Oc8ccc9c(c8)C(=O)N(*)C9=O)ccc7c6)cc5C4=O)cc3)cc2)cc1 (repeat unit) | NO |
| *[O][Ca][O]C(=O)c1ccccc1C(=O)OCCCCCOC(=O)NCCCCCCNC(=O)OCCCCCOC(=O)c1ccccc1C(*)=O (repeat unit) | NO |
| *CC(*)(C)C(=O)OCCN(C)c1ccc(/N=N/c2ccc(/N=N/c3ccc(C#N)cc3)cc2C)cc1 (repeat unit) | NO |
| *CC(*)c1ccc(CCC)cc1 (repeat unit) | NO |
| */C=C/[Si](*)(c1ccccc1)c1ccccc1 (repeat unit) | NO |
| *CC(*)C(=O)Oc1cccc(C(=O)OC)c1 (repeat unit) | NO |
| *c1ccc(-c2ccc(-c3cnc4cc(-c5ccc6nc(*)cnc6c5)ccc4n3)cc2)cc1 (repeat unit) | YES |
| *c1cccc(-c2nc3cc(-c4ccc5nc(*)c(-c6ccccc6)nc5c4)ccc3nc2-c2ccccc2)c1 (repeat unit) | YES |
| *c1c(C)cc(Cc2cc(C)c(N3C(=O)c4cccc(Oc5c(C)cc(-c6cc(C)c(Oc7cccc8c7C(=O)N(*)C8=O)c(C)c6)cc5C)c4C3=O)c(C)c2)cc1C (repeat unit) | NO |
| *CC(*)(C)C(=O)OCC(C)Oc1ccc(-c2ccc(-c3ccc(C#N)cc3)cc2)cc1 (repeat unit) | NO |
| *c1cccc(N2C(=O)c3c(c(-c4ccccc4)c(-c4ccc(-c5c(-c6ccccc6)c6c(c(-c7ccccc7)c5-c5ccccc5)C(=O)N(*)C6=O)cc4)c(-c4ccccc4)c3-c3ccccc3)C2=O)c1 (repeat unit) | YES |
| *C(=O)Nc1ccc(Oc2ccc(-c3ccc(Oc4ccc(NC(=O)c5ccc6c(c5)C(=O)N(c5ccc(Oc7ccc(N8C(=O)c9ccc(*)cc9C8=O)cc7)cc5)C6=O)cc4)cc3)cc2)cc1 (repeat unit) | NO |

====

| molecule | glass transition temperature [°C] |
| --- | --- |
| *Oc1ccc(Sc2ccc(OC(*)=O)cc2)cc1 (repeat unit) [Poly(4,4'-thiodiphenylene carbonate)] | 113.4 |
| *C(=O)Oc1ccc(OC(=O)c2ccc3c(c2)C(=O)N(c2ccc(S(=O)(=O)c4ccc(N5C(=O)c6ccc(*)cc6C5=O)cc4)cc2)C3=O)c(C(C)(C)C)c1 (repeat unit) | 179.00 |
| */C=C/c1nc(/C=C/c2ccc3c(c2)c2cc(*)ccc2n3CCCCCC)c(C#N)c(/C=C/c2ccc(N(c3ccccc3)c3ccccc3)cc2)c1C#N (repeat unit) | 134.00 |
| *NC1CCC(CC2CCC(NC(=O)CCCCCCCCCCCCC(*)=O)CC2)CC1 (repeat unit) | 131.00 |
| *C(=O)Oc1ccc(C(C)(C)c2ccc(OC(=O)c3ccc4c(c3)C(=O)N(c3ccc(-c5ccc(N6C(=O)c7ccc(*)cc7C6=O)cc5C)c(C)c3)C4=O)cc2)cc1 (repeat unit) | 166.00 |
| *C(=O)Nc1ccc(Oc2ccc(C3(c4ccc(Oc5ccc(NC(=O)c6ccc7c(c6)C(=O)N(c6ccc(Oc8ccc(N9C(=O)c%10ccc(*)cc%10C9=O)cc8)cc6)C7=O)cc5)cc4)NC(=O)c4ccccc43)cc2)cc1 (repeat unit) | 320.00 |
| *Oc1ccc(-c2ccc(Oc3ccc(C(=O)c4c(C(=O)c5ccc(*)cc5)c(-c5ccc(F)cc5)c(-c5ccc(F)cc5)c(-c5ccc(F)cc5)c4-c4ccc(F)cc4)cc3)cc2)cc1 (repeat unit) | 275.00 |
| *CC(F)(F)C(F)(F)C(F)(F)COC(=O)c1cccc(C(F)(F)C(F)(F)C(F)(F)c2cccc(C(=O)O*)c2)c1 (repeat unit) | 24.00 |
| *CCN(CCOC(=O)Nc1ccc(C)c(NC(=O)O*)c1)c1ccc(/N=N/c2ccc(-c3nc4cc([N+](=O)[O-])ccc4[nH]3)cc2)cc1 (repeat unit) | 188.00 |
| *Oc1ccc(C(c2ccc(OC(=O)c3ccc(C(c4ccc(C(*)=O)cc4)(C(F)(F)F)C(F)(F)F)cc3)cc2)(C(F)(F)F)C(F)(F)F)cc1 (repeat unit) | 135.00 |
| *c1ccc(Oc2ccc(Oc3ccc(-c4ccc(Oc5ccc(Oc6ccc(C7(*)OC(=O)c8ccccc87)cc6)cc5)c5ccccc45)c4ccccc34)cc2)cc1 (repeat unit) | 198.00 |
| *c1cc(/N=N/c2ccc(C#N)cc2)cc(*)c1O (repeat unit) | 176.00 |
